Numbers sourced from patent US20120135997A1.

molecular target: CYP1A2 (Homo sapiens, UniProt P05177)
Sequence (P05177 whole entry): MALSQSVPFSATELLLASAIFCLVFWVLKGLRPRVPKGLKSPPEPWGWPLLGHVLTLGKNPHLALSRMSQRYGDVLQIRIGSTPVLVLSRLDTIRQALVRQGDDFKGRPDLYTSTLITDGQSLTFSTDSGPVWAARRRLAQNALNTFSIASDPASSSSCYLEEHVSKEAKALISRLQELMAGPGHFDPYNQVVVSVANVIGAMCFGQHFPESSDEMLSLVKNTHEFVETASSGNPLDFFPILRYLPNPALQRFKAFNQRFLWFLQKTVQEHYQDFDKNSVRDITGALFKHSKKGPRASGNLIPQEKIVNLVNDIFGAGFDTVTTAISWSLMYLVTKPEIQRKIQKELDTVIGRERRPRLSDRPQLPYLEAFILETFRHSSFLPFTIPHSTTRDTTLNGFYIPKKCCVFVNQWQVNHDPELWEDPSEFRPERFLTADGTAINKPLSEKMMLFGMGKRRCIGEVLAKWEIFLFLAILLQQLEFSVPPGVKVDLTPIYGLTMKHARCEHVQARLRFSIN

# Mol, Subject Of Test, IC50
data = [
    ("COc1cc(NS(=O)(=O)c2ccccc2CO)ccc1-n1cnc(C)c1", "CYP1A2 (Homo sapiens, UniProt P05177)", "> 10 µM"),
]

* * *

target: CYP3A4 (Homo sapiens, UniProt P08684)
Sequence (P08684 whole entry): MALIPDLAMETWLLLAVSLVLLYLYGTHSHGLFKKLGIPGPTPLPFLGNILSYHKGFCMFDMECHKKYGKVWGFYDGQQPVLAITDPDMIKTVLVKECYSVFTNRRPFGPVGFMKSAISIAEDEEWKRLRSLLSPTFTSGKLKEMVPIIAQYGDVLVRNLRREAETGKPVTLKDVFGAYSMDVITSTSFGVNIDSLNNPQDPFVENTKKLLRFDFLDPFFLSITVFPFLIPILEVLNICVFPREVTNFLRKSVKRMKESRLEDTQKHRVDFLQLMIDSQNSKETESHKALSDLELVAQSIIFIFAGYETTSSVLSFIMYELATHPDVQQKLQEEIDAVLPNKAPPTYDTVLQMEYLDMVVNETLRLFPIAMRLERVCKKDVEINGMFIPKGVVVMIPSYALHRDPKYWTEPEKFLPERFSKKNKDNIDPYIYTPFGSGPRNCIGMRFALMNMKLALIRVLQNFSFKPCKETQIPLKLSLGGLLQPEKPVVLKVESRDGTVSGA

# Mol, IC50
records = [
    ("COc1cc(NS(=O)(=O)c2ccccc2CO)ccc1-n1cnc(C)c1", "> 10 µM"),
]

* * *

target: UniProtKB P33261
Sequence (P33261 whole entry): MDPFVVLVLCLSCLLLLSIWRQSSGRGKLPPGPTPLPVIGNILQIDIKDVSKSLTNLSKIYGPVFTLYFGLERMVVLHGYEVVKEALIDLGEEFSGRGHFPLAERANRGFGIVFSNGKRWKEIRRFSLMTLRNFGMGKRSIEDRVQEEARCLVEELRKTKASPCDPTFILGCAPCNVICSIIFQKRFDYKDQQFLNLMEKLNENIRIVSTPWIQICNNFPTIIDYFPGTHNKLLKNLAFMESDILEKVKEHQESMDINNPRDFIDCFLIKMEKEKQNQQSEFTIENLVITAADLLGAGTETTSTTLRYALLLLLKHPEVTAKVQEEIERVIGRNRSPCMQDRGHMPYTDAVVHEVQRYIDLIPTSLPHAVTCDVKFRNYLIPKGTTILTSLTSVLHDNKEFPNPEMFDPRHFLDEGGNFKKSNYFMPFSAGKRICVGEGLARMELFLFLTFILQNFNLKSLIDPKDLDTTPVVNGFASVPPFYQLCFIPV

# Mol, Subject Of Test, IC50
measured = [
    ("COc1cc(NS(=O)(=O)c2ccccc2CO)ccc1-n1cnc(C)c1", "UniProtKB P33261", "> 10 µM"),
]
